target: COX-1 (UniProt P23219); experiment: Fast assay for COX-1 activity (PGE2 ELISA); conditions: read-out: COX-1* IC50, recombinant COX-1, PGE2 ELISA, 10 min pre-incubation at 25° C.
pIC50: −log10 of the molar value.

>  <molecule>
O=C(O)C1=Cc2cc(OC(F)(F)F)ccc2OC1C(F)(F)F (stereo not shown)

>  <value_comparator>
=

>  <pIC50>
4.73

$$$$
>  <molecule>
O=C(O)C1=Cc2cc(Cl)ccc2OC1C(F)(F)F (stereo not shown)

>  <value_comparator>
=

>  <pIC50>
4.37

$$$$
>  <molecule>
O=C(O)C1=Cc2cc(I)ccc2NC1C(F)(F)F (stereo not shown)

>  <value_comparator>
<

>  <pIC50>
4.00

$$$$
>  <molecule>
Cc1c(Cl)cc2c(c1Cl)OC(C(F)(F)F)C(C(=O)O)=C2 (stereo not shown)

>  <value_comparator>
=

>  <pIC50>
6.00

$$$$
>  <molecule>
Cc1cc2c(cc1Cl)C=C(C(=O)O)C(C(F)(F)F)S2 (stereo not shown)

>  <value_comparator>
=

>  <pIC50>
3.44

$$$$
>  <molecule>
O=C(O)C1=Cc2cc(Cl)cc(Cl)c2SC1C(F)(F)F (stereo not shown)

>  <value_comparator>
=

>  <pIC50>
6.70

$$$$
>  <molecule>
O=C(O)C1=Cc2cc(Cl)cc(Cl)c2NC1C(F)(F)F (stereo not shown)

>  <value_comparator>
=

>  <pIC50>
5.01

$$$$
>  <molecule>
O=C(O)C1=Cc2cc(Cl)c(Cl)cc2OC1C(F)(F)F (stereo not shown)

>  <value_comparator>
=

>  <pIC50>
4.02

$$$$
>  <molecule>
O=C(O)C1=Cc2cc(Cl)ccc2NC1C(F)(F)F (stereo not shown)

>  <value_comparator>
<

>  <pIC50>
3.30

$$$$
>  <molecule>
O=C(O)C1=Cc2cc(Br)ccc2NC1C(F)(F)F (stereo not shown)

>  <value_comparator>
<

>  <pIC50>
4.00

$$$$
>  <molecule>
CC(C)(C)c1ccc2c(c1)OC(C(F)(F)F)C(C(=O)O)=C2 (stereo not shown)

>  <value_comparator>
=

>  <pIC50>
4.24

$$$$
>  <molecule>
O=C(O)C1=Cc2cc(Cl)ccc2N[C@@H]1C(F)(F)F

>  <value_comparator>
<

>  <pIC50>
4.00

$$$$
>  <molecule>
O=Cc1ccc2c(c1)C=C(C(=O)O)C(C(F)(F)F)O2 (stereo not shown)

>  <value_comparator>
<

>  <pIC50>
3.30

$$$$

These entries and their values trace back to patent US20020103141A1.
